Hello, the source for this data is paper PMC5607274, in case you need it.

# assay target: human recombinant Yes [a.a. 2–543 (end)] (Homo sapiens, UniProt P07947)
# Construct: human recombinant Yes [a.a; 2–543 (end)]; purchased BPS Bioscience 40488
# Sequence (P07947 2-543): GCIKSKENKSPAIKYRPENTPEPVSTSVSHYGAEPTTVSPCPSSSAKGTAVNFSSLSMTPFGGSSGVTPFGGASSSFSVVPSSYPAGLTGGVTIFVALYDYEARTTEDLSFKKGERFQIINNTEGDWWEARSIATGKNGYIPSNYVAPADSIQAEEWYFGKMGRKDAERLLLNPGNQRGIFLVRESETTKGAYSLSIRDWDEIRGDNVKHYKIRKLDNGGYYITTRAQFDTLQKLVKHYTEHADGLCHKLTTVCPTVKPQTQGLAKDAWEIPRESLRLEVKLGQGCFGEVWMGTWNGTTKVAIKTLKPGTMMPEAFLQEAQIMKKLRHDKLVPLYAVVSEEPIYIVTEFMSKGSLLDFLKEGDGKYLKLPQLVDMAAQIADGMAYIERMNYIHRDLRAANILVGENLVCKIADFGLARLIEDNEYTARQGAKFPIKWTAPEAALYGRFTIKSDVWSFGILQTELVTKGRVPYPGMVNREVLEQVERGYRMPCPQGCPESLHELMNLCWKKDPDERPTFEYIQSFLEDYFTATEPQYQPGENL
# measurement notes: ADP-Glo kinase assay, inhibition rates of Yes phosphorylation activity (first and second screening)
# Assay type: biochemical
# condition details: first screening; mean of n = 4 wells; 10 μmol L−1 compound
# Experimental: All inhibitory assays of the phosphorylation activity of Yes were performed in accordance with the Promega Technical Manual for the ADP-Glo™ Kinase Assay (Fitchburg, WI, USA. Catalog number: V9102). The human recombinant Yes [a.a. […] The screening was conducted in three steps consisting of the first screening, the second screening, and the IC50 determination, as can be illustrated in Fig. 1b. First, we determined the inhibition rates of the 1,991 compounds. […]
observed property: First screening IR (inhibition rate) (%)
Answers are plain numbers, in %.

Example cases with answers are listed next.
Lab note: need First screening IR (inhibition rate) for `CN(C)S(=O)(=O)c1cccc(S(=O)(=O)N(C)C)c1` on human recombinant Yes [a.a. 2–543 (end)] (Homo sapiens, UniProt P07947), anyone have it? 13

GET /values?readout=First screening IR (inhibition rate)&system=human recombinant Yes [a.a. 2–543 (end)] (Homo sapiens, UniProt P07947)&item= `Cc1ccccc1Nc1nc(N)nc(CSc2nc3ccccc3c(=O)n2CCCN2CCOCC2)n1` -7

# query: First screening IR (inhibition rate) | item `NC(=O)COC(=O)c1cc(-c2ccccc2)nc2c1cnn2Cc1ccccc1` | system: human recombinant Yes [a.a. 2–543 (end)] (Homo sapiens, UniProt P07947) 4

Enter reported First screening IR (inhibition rate) observed with human recombinant Yes [a.a. 2–543 (end)] (Homo sapiens, UniProt P07947) for CC(c1cc2ccccc2o1)N(C)c1ncnc2c1cnn2C (stereo not drawn) -5

Give the reported First screening IR (inhibition rate) for `CC(C)c1cccc(N(C)C(=O)c2cccnc2S(=O)(=O)C(F)(F)F)c1` (system: human recombinant Yes [a.a. 2–543 (end)] (Homo sapiens, UniProt P07947)). 32

Provide the reported First screening IR (inhibition rate) of each entry below, same order.
1. Cc1c(NC(=O)C2CC(=O)N(c3ccc4c(c3)CCC4)C2)n[nH]c1C1CC1 (stereo not drawn)
2. COc1cccc(NC(=O)CN(C)CC(=O)Nc2cc(Cl)ccc2C#N)c1

[-9, 3]

For each of the compounds below, note its First screening IR (inhibition rate).
1. Cc1ccnc(NC(=O)C2CCN(c3ccc(C#N)cc3F)CC2)c1
2. Cc1cccn2c(NC(=O)c3cccc(S(=O)(=O)NC(C)C)c3)c(-c3ccccc3)nc12
3. Cc1ccc(-c2nn3c(=O)c4c(C)c(C)sc4nc3c3ccccc23)cc1
4. CC(SCc1nc(N)nc(N(C)C)n1)C(=O)NC1CCCCCC1 (stereo not drawn)
5. CC(C)S(=O)(=O)CCS(=O)(=O)c1cccc(Br)c1

1. 1
2. 0
3. -6
4. 1
5. -2

----------
# assay target: human recombinant Yes [a.a. 2–543 (end)] (Homo sapiens)
# Construct: human recombinant Yes [a.a; 2–543 (end)]; purchased BPS Bioscience 40488
# measurement notes: ADP-Glo kinase assay, inhibition rates of Yes phosphorylation activity (first and second screening)
# Assay type: biochemical
# condition details: first screening; mean of n = 4 wells; 10 μmol L−1 compound
Assignment: determine reported First screening IR (inhibition rate) for the given compounds.
Give bare numbers, in %.

Illustrative cases are given below, each with its answer.
Returns the measured First screening IR (inhibition rate) for the input compound. Input: Cc1sc2nc(CN3CCC(C)CC3)n(CC(=O)Nc3ccc(N4CCCC4)cc3)c(=O)c2c1C [Compound Z112958446] -4

So what does the record say about First screening IR (inhibition rate) for Cl.Clc1ccc(-c2cc(-c3ccccc3)c3cc(Cl)ccc3n2)cc1 [Compound Z48950819] ? 36

Now for the compound whose First screening IR (inhibition rate) we want.
Which measured First screening IR (inhibition rate) value corresponds to Fc1ccccc1-n1c(SCc2cccnc2)nnc1-c1ccccc1Cl [Compound Z316264326] ? 1
